Reference for the values: patent US11066369B2

The entries below come with measured MTECC24 CFHBEC- Amax % values attached.
- Experimental system: delF508-CFTR (Homo sapiens, UniProt P13569, DEL508-508)
- Construct: functional activity of the CFTR channel (Chloride ion transport) in patient derived primary human bronchial epithelial cells; host or cells: patient-derived primary human bronchial epithelial cells (delF508-CFTR)
- Sequence (P13569 with tags, fused parts or gaps DEL508-508): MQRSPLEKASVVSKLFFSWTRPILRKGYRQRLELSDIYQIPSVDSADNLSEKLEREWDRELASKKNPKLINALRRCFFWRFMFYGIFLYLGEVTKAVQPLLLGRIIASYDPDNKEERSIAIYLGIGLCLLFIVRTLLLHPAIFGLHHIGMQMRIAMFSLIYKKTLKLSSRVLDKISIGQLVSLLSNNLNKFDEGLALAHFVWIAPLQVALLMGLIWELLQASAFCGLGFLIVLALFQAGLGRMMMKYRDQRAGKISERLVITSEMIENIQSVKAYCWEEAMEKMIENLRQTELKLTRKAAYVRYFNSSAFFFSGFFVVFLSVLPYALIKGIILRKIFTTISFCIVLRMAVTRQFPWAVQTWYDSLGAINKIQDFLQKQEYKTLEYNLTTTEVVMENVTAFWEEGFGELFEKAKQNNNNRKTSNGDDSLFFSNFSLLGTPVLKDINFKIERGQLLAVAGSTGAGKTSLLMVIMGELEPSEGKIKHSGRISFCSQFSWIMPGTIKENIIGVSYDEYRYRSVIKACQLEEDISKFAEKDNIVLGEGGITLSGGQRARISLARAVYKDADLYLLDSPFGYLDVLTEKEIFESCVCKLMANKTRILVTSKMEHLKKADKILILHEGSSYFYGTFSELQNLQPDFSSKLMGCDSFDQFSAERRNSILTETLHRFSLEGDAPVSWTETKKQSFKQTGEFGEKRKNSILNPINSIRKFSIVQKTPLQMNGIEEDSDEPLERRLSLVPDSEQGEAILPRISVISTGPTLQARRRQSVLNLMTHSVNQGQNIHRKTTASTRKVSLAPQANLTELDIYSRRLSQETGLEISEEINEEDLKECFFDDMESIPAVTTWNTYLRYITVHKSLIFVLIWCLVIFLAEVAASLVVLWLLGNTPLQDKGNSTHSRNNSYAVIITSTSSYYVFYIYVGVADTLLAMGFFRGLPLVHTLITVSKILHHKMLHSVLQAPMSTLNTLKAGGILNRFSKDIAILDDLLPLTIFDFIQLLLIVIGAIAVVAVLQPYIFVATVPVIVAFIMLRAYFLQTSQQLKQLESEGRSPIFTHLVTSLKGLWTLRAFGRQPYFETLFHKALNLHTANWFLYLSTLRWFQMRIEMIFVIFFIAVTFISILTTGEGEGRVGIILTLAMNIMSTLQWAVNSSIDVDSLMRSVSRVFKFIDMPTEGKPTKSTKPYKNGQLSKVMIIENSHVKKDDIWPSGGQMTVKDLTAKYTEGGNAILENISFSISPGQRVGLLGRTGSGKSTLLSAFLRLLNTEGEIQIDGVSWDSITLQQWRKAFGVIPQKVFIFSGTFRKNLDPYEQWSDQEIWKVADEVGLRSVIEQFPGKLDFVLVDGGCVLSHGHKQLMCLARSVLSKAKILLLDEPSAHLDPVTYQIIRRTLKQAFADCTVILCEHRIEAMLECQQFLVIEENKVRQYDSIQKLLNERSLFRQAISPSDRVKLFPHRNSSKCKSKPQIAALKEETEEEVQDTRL
- Experimental protocol: Measurement of delF508-CFTR functional activity in primary human bronchial epithelial cells (HBECs) using Multi-Transepithelial Clamp Circuit (MTECC-24) assay
- Type: cell-based
- Assay conditions: primary CF HBECs; test compound added 24h before assay plus potentiator; relative to reference combination (2 μM corrector + 0.5 μM potentiator)
Give your result in % as a bare value.

Compound	Experimental system	MTECC24 CFHBEC- Amax %, %
Cc1c(F)cccc1-c1nc(NS(=O)(=O)c2cccc(N3CCC[C@H](C(=O)O)C3)n2)ccc1C(F)(F)F [Example 360]	delF508-CFTR (Homo sapiens, UniProt P13569, DEL508-508)	57.5
Cc1ccccc1-c1nc(NS(=O)(=O)c2cccc(N3CCN(CC(F)(F)F)CC3)n2)ccc1C(F)(F)F [Example 186]	delF508-CFTR (Homo sapiens, UniProt P13569, DEL508-508)	81.5
CCC1(C(=O)O)CCN(c2cccc(S(=O)(=O)Nc3ccc(Cl)c(-c4c(C)cccc4C)n3)n2)CC1 [Example 248]	delF508-CFTR (Homo sapiens, UniProt P13569, DEL508-508)	68.2
Cc1ccccc1-c1nc(NS(=O)(=O)c2cccc(O[C@@H]3COCC3(C)O)n2)ccc1C(F)(F)F (mixture of isomers) [Example 293]	delF508-CFTR (Homo sapiens, UniProt P13569, DEL508-508)	78.6
O=S(=O)(Nc1ccc(Cl)c(-c2ccc(F)cc2Cl)n1)c1cccc(N2CC(O)C2)n1 [Example 214]	delF508-CFTR (Homo sapiens, UniProt P13569, DEL508-508)	71.1
Cc1ccccc1-c1nc(NS(=O)(=O)c2cccc(N3CCC(C)(C(=O)O)CC3)n2)ccc1Cl [Example 255]	delF508-CFTR (Homo sapiens, UniProt P13569, DEL508-508)	55.1

With those in mind, consider the next compound.
Specify MTECC24 CFHBEC- Amax % for Nc1cccc(S(=O)(=O)Nc2ccc(C(F)(F)F)c(-c3ccccc3C(F)(F)F)n2)n1 [Example 18] and stop.
65.5
